Tested on: Staphylococcus aureus
Assay: Antibacterial activity against Staphylococcus aureus 15B196 by microbroth dilution method
Format: functional
ATTRIBUTE MEASURED: MIC (µg/mL)
Field format: number, assumed µg/mL, no unit text.

Solved entries (count: 2):
- MOLECULE: "CC[C@H]1OC(=O)[C@H](C)C(=O)[C@H](C)[C@@H](O[C@@H]2O[C@H](C)C[C@H](N(C)C)[C@H]2O)[C@](C)(OC)C[C@@H](C)C(=O)[C@H](C)[C@H]2N(CCCN3CCN(c4cc5c(cc4F)c(=O)c(C(N)=O)cn5C4CC4)CC3)C(=O)O[C@]12C"
  VALUE UNITS: "µg/mL"
  MIC: 512
- MOLECULE: "CC[C@H]1OC(=O)[C@H](C)C(=O)[C@H](C)[C@@H](O[C@@H]2O[C@H](C)C[C@H](N(C)C)[C@H]2O)[C@](C)(OC)C[C@@H](C)C(=O)[C@H](C)[C@H]2N(CCCCn3cnc(-c4cccnc4)c3)C(=O)O[C@]12C [TELITHROMYCIN]"
  VALUE UNITS: "µg/mL"
  MIC: 64

Switching to the query record.
## Task Give the measured MIC for CC[C@H]1OC(=O)[C@H](C)C(=O)[C@H](C)[C@@H](O[C@@H]2O[C@H](C)C[C@H](N(C)C)[C@H]2O)[C@](C)(OC)C[C@@H](C)C(=O)[C@H](C)[C@H]2N(CCCCc3ccc4c(=O)c(C(=O)O)cn(C5CC5)c4c3)C(=O)O[C@]12C
## Result 8

====

Assay: Half life in human liver microsomes at 1 uM by LC-MS/MS analysis
Type: ADME, Microsome
ATTRIBUTE MEASURED: half-life at 1 µM (min)
Field format: number, assumed min, no unit text.

- SMILES NOTATION: "CC[C@H]1OC(=O)[C@H](C)C(=O)[C@H](C)[C@@H](O[C@@H]2O[C@H](C)C[C@H](N(C)C)[C@H]2O)[C@](C)(OC)C[C@@H](C)C(=O)[C@H](C)[C@H]2N(CCCCc3ccc4c(=O)c(C(=O)O)cn(C5CC5)c4c3)C(=O)O[C@]12C"
  half-life at 1 µM [min]: 39.1

## Task Give the measured half-life at 1 µM for CC[C@H]1OC(=O)[C@H](C)C(=O)[C@H](C)[C@@H](O[C@@H]2O[C@H](C)C[C@H](N(C)C)[C@H]2O)[C@](C)(OC)C[C@@H](C)C(=O)[C@H](C)[C@H]2N(CCCN3CCN(c4cc5c(cc4F)c(=O)c(C(=O)O)cn5C4CC4)CC3)C(=O)O[C@]12C
## Result 110

## Task Give the measured half-life at 1 µM for CCOc1ccc2ccc(=O)oc2c1
## Result 17.8

## Task Give the measured half-life at 1 µM for CC[C@H]1OC(=O)[C@H](C)C(=O)[C@H](C)[C@@H](O[C@@H]2O[C@H](C)C[C@H](N(C)C)[C@H]2O)[C@](C)(OC)C[C@@H](C)C(=O)[C@H](C)[C@H]2N(CCCCn3cnc(-c4cccnc4)c3)C(=O)O[C@]12C
## Result 32.4

====

Tested on: Streptococcus pneumoniae
Test: Antibacterial activity against Streptococcus pneumoniae PU09 by microbroth dilution method
Type: functional
# Y = MIC below 1 µg/mL (exclusive); N = MIC at/above 1 µg/mL

- SMILES NOTATION: "CC[C@H]1OC(=O)[C@H](C)C(=O)[C@H](C)[C@@H](O[C@@H]2O[C@H](C)C[C@H](N(C)C)[C@H]2O)[C@](C)(OC)C[C@@H](C)C(=O)[C@H](C)[C@H]2N(CCCCc3ccc4c(c3)c(=O)c(C(=O)O)cn4C3CC3)C(=O)O[C@]12C"
  LABEL CLASS: "N"
- SMILES NOTATION: "CC[C@H]1OC(=O)[C@H](C)C(=O)[C@H](C)[C@@H](O[C@@H]2O[C@H](C)C[C@H](N(C)C)[C@H]2O)[C@](C)(OC)C[C@@H](C)C(=O)[C@H](C)[C@H]2N(CCCCc3ccc4c(=O)c(C(=O)O)cn(C5CC5)c4c3)C(=O)O[C@]12C"
  LABEL CLASS: "Y"
- SMILES NOTATION: "CC[C@H]1OC(=O)[C@H](C)C(=O)[C@H](C)[C@@H](O[C@@H]2O[C@H](C)C[C@H](N(C)C)[C@H]2O)[C@](C)(OC)C[C@@H](C)C(=O)[C@H](C)[C@H]2N(CCC#Cc3ccc4c(=O)c(C(N)=O)cn(C5CC5)c4c3)C(=O)O[C@]12C"
  LABEL CLASS: "Y"
- SMILES NOTATION: "CC[C@H]1OC(=O)[C@H](C)C(=O)[C@H](C)[C@@H](O[C@@H]2O[C@H](C)C[C@H](N(C)C)[C@H]2O)[C@](C)(OC)C[C@@H](C)C(=O)[C@H](C)[C@H]2N(CCCC#Cc3ccc4c(=O)c(C(N)=O)cn(C5CC5)c4c3)C(=O)O[C@]12C"
  LABEL CLASS: "N"

## Task Confirm or reject: MIC of CC[C@H]1OC(=O)[C@H](C)C(=O)[C@H](C)[C@@H](O[C@@H]2O[C@H](C)C[C@H](N(C)C)[C@H]2O)[C@](C)(OC)C[C@@H](C)C(=O)[C@H](C)[C@H]2N(CCCN3CCN(c4cc5c(cc4F)c(=O)c(C(N)=O)cn5C4CC4)CC3)C(=O)O[C@]12C lies strictly below 1 µg/mL
## Result N
